Attribution: ChEMBL document CHEMBL4177758

experimental.protocol: Chemical stability in 96% ethanol assessed as parent compound recovery at 23 degC after 84 days
Assay type: physicochemical
assay.context: read-out: Drug recovery
observable: remaining at 2016 h (%)
Numbers only, in %.

Qu. Name the recorded remaining at 2016 h of the item Cc1cc(Nc2ccc3ccccc3c2)ccc1C(=O)Nc1cn(C(C)C)c(=O)n(C2(C(=O)N[C@H]3CC(=O)OC(O)C3)CC2)c1=O (stereo partly specified) in your answer.
Ans. 88

* * *

study.target: Caspase-1 (Homo sapiens)
experimental.protocol: Inhibition of human recombinant caspase-1 using AC-WEHD-AMC as substrate at 20 times Km after 20 mins by fluorescence assay
Assignment: determine reported IC50 for the given compounds.

Examples with answers:
1. CC(C)[C@H](NC(=O)c1ccc2ccccc2c1)c1ccc(C(=O)N[C@H]2CC(=O)OC2O)cn1 (some centres undefined) ... > 10 µM
2. C[C@@H](C(=O)N[C@H]1CC(=O)OC1O)N1C(=O)CC(NC(=O)c2ccc3ccccc3c2)C1=O (some centres undefined) ... 1.26 to 10 µM
3. CC(C)N(NC(=O)c1ccc2ccccc2c1)C(=O)C1CCC[C@H]1C(=O)N[C@H]1CC(=O)OC1O (some centres undefined) ... 1.58 to 10 µM

Attention now shifts to the item below.
Qu. Name the recorded IC50 of the item C[C@@H](C(=O)N[C@H]1CC(=O)OC1O)N1C(=O)NC(NC(=O)c2ccc3ccccc3c2)C1=O (some centres undefined) in your answer.
Ans. 1.26 to 10 µM

* * *

Assignment: determine reported pIC50 for the given compounds.
study.target: Caspase-1 (Homo sapiens)
Sequence (P29466 whole entry): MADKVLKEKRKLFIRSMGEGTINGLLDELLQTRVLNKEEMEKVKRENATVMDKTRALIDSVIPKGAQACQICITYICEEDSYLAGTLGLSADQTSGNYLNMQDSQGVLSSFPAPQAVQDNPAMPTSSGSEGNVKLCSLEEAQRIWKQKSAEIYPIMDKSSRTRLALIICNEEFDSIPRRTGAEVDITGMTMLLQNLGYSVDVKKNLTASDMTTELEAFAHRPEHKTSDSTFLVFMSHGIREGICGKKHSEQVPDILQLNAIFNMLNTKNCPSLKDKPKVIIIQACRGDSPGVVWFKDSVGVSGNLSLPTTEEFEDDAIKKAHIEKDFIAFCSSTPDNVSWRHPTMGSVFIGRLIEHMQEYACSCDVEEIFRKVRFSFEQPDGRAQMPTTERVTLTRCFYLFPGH
experimental.protocol: Inhibition of caspase-1 in human THP1 cells assessed as decrease in LPS-induced IL-1beta secretion after overnight incubation by sandwich immunoassay
Assay type: cell-based
Answers are plain numbers, as −log10 of the molar value.

1. CC(C(=O)N[C@H]1CC(=O)OC1O)n1c(=O)c(NC(=O)c2ccc(Nc3cnc4ccccc4n3)cc2)cn(C)c1=O (stereo not given in full) ... 7.32

For the 4 compounds below, give their pIC50 values.
1. CC(C)n1cc(NC(=O)c2ccc(Nc3cnc4ccccc4n3)cc2)c(=O)n(CC(=O)N[C@H]2CC(=O)OC2O)c1=O (stereo not given in full)
2. CC(C)n1cc(NC(=O)c2ccc(Nc3cnc4ccccc4n3)cc2)c(=O)n(C(C)C(=O)N[C@H]2CC(=O)OC2O)c1=O (stereo not given in full)
3. CC(C)n1cc(NC(=O)c2ccc(Nc3cnc4ccccc4n3)cc2)c(=O)n(C2(C(=O)N[C@H]3CC(=O)OC3O)CC2)c1=O (stereo not given in full)
4. Cc1cc(Nc2ccc3ccccc3c2)ccc1C(=O)Nc1cn(C(C)C)c(=O)n(CC(=O)N[C@H]2CC(=O)OC2O)c1=O (stereo not given in full)

Ans.
7.28
7.30
7.57
7.18
